// provenance: patent US20100129369A1

biological target: human c-Met (human, UniProt P08581 25-1390); assay: cell-based or functional assay
Sequence (P08581 25-1390): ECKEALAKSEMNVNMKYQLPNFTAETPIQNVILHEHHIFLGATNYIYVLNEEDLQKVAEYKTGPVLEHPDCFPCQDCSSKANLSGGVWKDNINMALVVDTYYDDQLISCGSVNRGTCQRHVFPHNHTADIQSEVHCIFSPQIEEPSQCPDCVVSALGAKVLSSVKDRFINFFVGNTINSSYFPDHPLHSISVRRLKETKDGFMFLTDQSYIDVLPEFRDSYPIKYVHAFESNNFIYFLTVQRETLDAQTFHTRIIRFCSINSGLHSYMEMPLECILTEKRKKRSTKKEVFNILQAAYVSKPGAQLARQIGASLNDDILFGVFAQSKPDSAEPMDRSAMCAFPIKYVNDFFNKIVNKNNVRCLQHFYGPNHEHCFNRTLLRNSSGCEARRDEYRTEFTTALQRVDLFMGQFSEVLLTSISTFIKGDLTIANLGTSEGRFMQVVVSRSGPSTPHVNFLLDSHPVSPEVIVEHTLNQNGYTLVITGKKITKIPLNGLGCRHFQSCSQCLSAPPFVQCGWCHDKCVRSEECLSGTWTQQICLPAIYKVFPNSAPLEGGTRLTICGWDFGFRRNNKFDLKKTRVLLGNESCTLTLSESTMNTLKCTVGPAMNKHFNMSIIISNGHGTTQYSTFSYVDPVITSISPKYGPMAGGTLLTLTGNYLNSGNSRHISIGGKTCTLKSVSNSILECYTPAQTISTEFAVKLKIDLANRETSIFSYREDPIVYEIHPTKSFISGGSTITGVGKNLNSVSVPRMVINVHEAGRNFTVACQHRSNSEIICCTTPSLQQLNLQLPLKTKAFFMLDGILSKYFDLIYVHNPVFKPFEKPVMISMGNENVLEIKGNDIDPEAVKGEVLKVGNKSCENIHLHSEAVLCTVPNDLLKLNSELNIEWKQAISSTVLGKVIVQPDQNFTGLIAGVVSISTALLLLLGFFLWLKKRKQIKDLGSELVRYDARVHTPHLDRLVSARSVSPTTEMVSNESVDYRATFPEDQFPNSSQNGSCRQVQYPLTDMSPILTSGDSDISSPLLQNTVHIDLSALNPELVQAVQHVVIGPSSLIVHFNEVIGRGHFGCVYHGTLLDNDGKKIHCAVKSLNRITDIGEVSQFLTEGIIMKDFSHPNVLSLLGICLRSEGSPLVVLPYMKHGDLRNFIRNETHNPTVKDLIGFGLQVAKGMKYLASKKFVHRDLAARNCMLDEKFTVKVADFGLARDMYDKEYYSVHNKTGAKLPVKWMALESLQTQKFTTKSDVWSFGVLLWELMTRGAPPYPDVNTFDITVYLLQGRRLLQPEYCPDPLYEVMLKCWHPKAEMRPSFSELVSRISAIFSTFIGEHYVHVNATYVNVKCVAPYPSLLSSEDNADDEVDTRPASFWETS
Reported metric: % inhibition of HGF stimulated phospho-Met (ELISA, HCT116 cells), Ab 0.0032 µg/mL (%)
Record the value in %, omitting the unit from your answer.

Please review the entries below; each comes with its answer.
>>> recorded_result("D11-S17Y (antibody, human IgG2, kappa, V domains shown, Human engineered IgG2 kappa c-Met antibody; also called D11-S17Y IgG2) VH: QVQLVQSGAEVKKPGSSVKVSCKASGYTFTSRYIHWVRQAPGQGLEWMGWIYPVTGDTYYNEKFKGRVTITADKSTSTAYMELSSLRSEDTAVYYCARGYGAFYYWGQGTLVTVSS VL: EIVLTQSPGTLSLSPGERATLSCSVSSSISSTNLHWYQQKPGQAPRLLIYGTSYLASGIPDRFSGSGSGTDFTLTISRLEPEDFAVYYCQQWSSYPYSFGQGTKLEIKR")
9.48
>>> recorded_result("D11-8B8 (antibody, human IgG2, kappa, V domains shown, Human engineered IgG2 kappa c-Met antibody; also called Mab D11-8B8; D11-8B8 IgG2) VH: QVQLVQSGAEVKKPGSSVKVSCKASGYTFTSRYIHWVRQAPGQGLEWMGWIYPVTGDTYYIEKFKGRVTITADKSTSTAYMELSSLRSEDTAVYYCARGYGAFFYWGQGTLVTVSS VL: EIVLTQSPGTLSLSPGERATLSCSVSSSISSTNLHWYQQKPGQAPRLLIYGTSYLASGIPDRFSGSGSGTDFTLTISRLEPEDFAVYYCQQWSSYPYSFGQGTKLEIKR")
-10.4

Incoming: Recorded % inhibition of HGF stimulated phospho-Met (ELISA, HCT116 cells), Ab 0.0032 µg/mL of D11-C27G3 (antibody, human IgG2, kappa, V domains shown, Human engineered IgG2 kappa c-Met antibody; also called D11-27G3; D11-C27G3 IgG2) VH: QVQLVQSGAEVKKPGSSVKVSCKASGYTFTSRYIHWVRQAPGQGLEWMGWIYPVTGDTYYREPFKGRVTITADKSTSTAYMELSSLRSEDTAVYYCARGYGAFYYWGQGTLVTVSS VL: EIVLTQSPGTLSLSPGERATLSCSVSSSISSTNLHWYQQKPGQAPRLLIYGTSRLRSGIPDRFSGSGSGTDFTLTISRLEPEDFAVYYCQQWSSYPYSFGQGTKLEIKR , please.
Outgoing: 9.72

Incoming: Recorded % inhibition of HGF stimulated phospho-Met (ELISA, HCT116 cells), Ab 0.0032 µg/mL of C8-co-16 (antibody, human IgG2, kappa, V domains shown, Named IgG4 kappa; also called C8-co-16 IgG4) VH: QVQLVQSGAEVKKPGASVKVSCKASGYTFTDYYMHWVRQAPGQGLEWMGRVNPYRGSTTYNQKFEGRVTMTTDTSTSTAYMELRSLRSDDTAVYYCARANILDYWGQGTTVTVSS VL: DIQMTQSPSSLSASVGDRVTITCSVSSSVRSIYLHWYQQKPGKAPKLLIYSTSNLASGVPSRFSGSGSGTDFTLTISSLQPEDFATYYCQVYRGYPLTFGGGTKVEIKR , please.
Outgoing: -10.7

Incoming: Recorded % inhibition of HGF stimulated phospho-Met (ELISA, HCT116 cells), Ab 0.0032 µg/mL of C8-6 (antibody, human IgG2, kappa, V domains shown, Named IgG4 kappa; also called C8-6 IgG4) VH: QVQLVQSGAEVKKPGASVKVSCKASGYTFTDYYMHWVRQAPGQGLEWMGRVNPNRGGTTYNQKFEGRVTMTTDTSTSTAYMELRSLRSDDTAVYYCARTNWLDYWGQGTTVTVSS VL: DIQMTQSPSSLSASVGDRVTITCSVSSSVSSIYLHWYQQKPGKAPKLLIYSTSNLASGVPSRFSGSGSGTDFTLTISSLQPEDFATYYCIQYSGYPLTFGGGTKVEIKR , please.
Outgoing: -11.3
